Target: human RORγt ligand binding domain (RORγt LBD) (Homo sapiens, UniProt P51449)
Construct: His-tag (N); TurboTEV protease cleavage site (ENLYFQG) (N)
Sequence (P51449 with tags, fused parts or gaps): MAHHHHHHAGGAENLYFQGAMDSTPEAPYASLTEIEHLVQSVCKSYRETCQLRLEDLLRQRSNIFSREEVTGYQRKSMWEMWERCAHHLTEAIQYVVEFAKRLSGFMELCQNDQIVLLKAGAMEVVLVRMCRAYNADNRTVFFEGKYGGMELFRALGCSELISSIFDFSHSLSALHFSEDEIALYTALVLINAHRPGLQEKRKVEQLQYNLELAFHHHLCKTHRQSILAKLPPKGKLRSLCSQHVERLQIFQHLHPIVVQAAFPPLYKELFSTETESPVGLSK
Test: RORγt ThermoFluor assay (thermal shift, ligand binding affinity)
Conditions: estimated from concentration response of thermal shift
Classes (Kd): lower level = under 40 nM, middle level = from 40 nM up to 300 nM, upper level = 300 nM and over

{"compound": "OC(c1ccc(C(F)(F)F)cc1)(c1cccnc1)c1ccc2nc(Cl)c(-c3ccccc3)c(Cl)c2c1 (stereo not shown)", "cat": "middle level"}
{"compound": "CC(=O)N1CCC(C(O)(c2ccccc2)c2ccc3nc(C(F)(F)F)c(-c4ccccc4)c(C(F)(F)F)c3c2)CC1 (single isomer, unassigned) [Example 169b]", "cat": "lower level"}
{"compound": "Cn1cncc1C(O)(c1ccncc1)c1ccc2nc(C(F)(F)F)c(-c3ccccc3)c(C(F)(F)F)c2c1 (stereo not shown)", "cat": "lower level"}
{"compound": "[O-][n+]1cccc(C(O)(c2cccc(Cl)c2)c2ccc3nc(C(F)(F)F)c(-c4ccccc4)c(C(F)(F)F)c3c2)c1 (stereo not shown)", "cat": "lower level"}
{"compound": "Cc1cc(C(O)(c2ccc(F)cc2)c2cncn2C)cc2c(C#N)c(-c3cccc(F)c3)c(C#N)nc12 (single isomer, unassigned) [Example 175c]", "cat": "middle level"}
{"compound": "Cn1cncc1C(O)(c1ccncc1)c1ccc2nc(N3CCN(c4ccccc4)CC3)c(-c3ccccc3)c(Cl)c2c1 (stereo not shown)", "cat": "upper level"}
{"compound": "CN(C)c1nc2ccc(C(O)(c3ccc(F)cc3)c3cccnc3)cc2c(Cl)c1-c1ccccc1 (stereo not shown)", "cat": "lower level"}
{"compound": "COc1cc(C(O)(c2ccc3nc(Cl)c(-c4ccccc4)c(Cl)c3c2)c2cncn2C)ccn1 (stereo not shown)", "cat": "lower level"}
{"compound": "CCCCc1c(-c2ccccc2)c(Cl)nc2ccc(C(O)(c3ccncc3)c3cncn3C)cc12 (stereo not shown)", "cat": "middle level"}
{"compound": "COc1nc2c(C)cc(C(O)(c3ccc(C(F)(F)F)nc3)c3cncn3C)cc2c(Cl)c1-c1ccc(OC(F)(F)F)cc1 (single isomer, unassigned) [Example 183b]", "cat": "lower level"}
{"compound": "CN(C)c1c(-c2ccccc2)c(Cl)nc2ccc(C(O)(c3ccc(Cl)cc3)c3cccnc3)cc12 (stereo not shown)", "cat": "upper level"}
{"compound": "CN(C)c1nc2ccc(C(O)(c3ccncc3)c3cncn3C)cc2c(O)c1-c1ccccc1 (stereo not shown)", "cat": "upper level"}
{"compound": "OC(c1cccnc1)(c1ccc2nc(Cl)c(-c3ccccc3)c(Cl)c2c1)c1ccccn1 (stereo not shown)", "cat": "upper level"}
{"compound": "CC(=O)N1CCC(C(O)(c2ccc3nc(C(F)(F)F)c(-c4ccccc4)c(C(F)(F)F)c3c2)c2cncn2C)CC1 (single isomer, unassigned) [Example 181b]", "cat": "lower level"}
{"compound": "Cn1cncc1C(O)(c1ccc(Cl)cc1)c1ccc2nc(Cl)c(-c3cccc(Cl)c3)c(Cl)c2c1 (stereo not shown)", "cat": "middle level"}
{"compound": "CN(C)CCN(C)c1nc2ccc(C(O)(c3ccncc3)c3cncn3C)cc2c(Cl)c1-c1ccccc1 (stereo not shown)", "cat": "upper level"}
{"compound": "CSc1ncc(C(O)(c2ccc(Cl)cc2)c2ccc3nc(Cl)c(-c4ccccc4)c(Cl)c3c2)n1C (stereo not shown)", "cat": "upper level"}
{"compound": "Cn1cncc1C(O)(c1ccc(Cl)cc1)c1cc2c(Cl)c(-c3ccccc3)c(Cl)nc2cc1F (stereo not shown)", "cat": "middle level"}
{"compound": "Cc1cc(C(O)(c2ccc(C(F)(F)F)nc2)c2cncn2C)cc2c(C#N)c(-c3cccc(F)c3)c(C#N)nc12 (single isomer, unassigned) [Example 176c]", "cat": "middle level"}
{"compound": "OC(c1ccc(Cl)cc1)(c1cncnc1)c1ccc2nc(Cl)c(-c3ccccc3)c(Cl)c2c1 (stereo not shown)", "cat": "middle level"}
{"compound": "COc1nc2c(C)cc(C(O)(c3ccc(C(F)(F)F)nc3)c3cncn3C)cc2c(Cl)c1-c1ccc(OC(F)(F)F)cc1 (single isomer, unassigned) [Example 183c]", "cat": "middle level"}
{"compound": "CN(C)c1nc2ccc(C(O)(c3cccnc3)c3cccc(Cl)c3)cc2c(Cl)c1-c1ccccc1 (stereo not shown)", "cat": "lower level"}
{"compound": "COc1ccc(C(O)(c2cccnc2)c2ccc3nc(N(C)C)c(-c4ccccc4)c(Cl)c3c2)cc1 (stereo not shown)", "cat": "upper level"}
{"compound": "OC(c1ccc(Cl)cc1)(c1cccnc1)c1ccc2nc(-c3cccnc3)c(-c3ccccc3)c(Cl)c2c1 (stereo not shown)", "cat": "upper level"}
{"compound": "CN(C)c1nc2ccc(C(O)(c3cccnc3)c3cncn3C)cc2c(Cl)c1-c1ccccc1 (stereo not shown)", "cat": "lower level"}
{"compound": "COc1nc2c(C)cc(C(O)(c3ccc(C(F)(F)F)nc3)c3cncn3C)cc2c(Cl)c1-c1cccc(F)c1 (single isomer, unassigned) [Example 177c]", "cat": "upper level"}
{"compound": "Cn1cncc1C(O)(c1ccc(Cl)cc1)c1ccc2nc(Cl)c(-c3ccccc3)c(Cl)c2c1F (stereo not shown)", "cat": "upper level"}
{"compound": "Cc1cc(C(O)(c2cc(C)c3nc(Cl)c(-c4ccccc4)c(Cl)c3c2)c2cncn2C)ccn1 (stereo not shown)", "cat": "lower level"}

====

test system: IL-17 production by CD4 T cells; test: Human Th17 assay (IL-17 production by CD4 T cells under Th17 differentiation conditions); type: cell-based; settings: Homo sapiens, CD4+ T, 72 h, IL-17 in supernatant after 3 days
For each record, check the reported IC50: if it is below 300 nM write Yes, else write No.

{"compound": "OC(c1cccnc1)(c1cccc(Cl)c1)c1ccc2nc(Cl)c(-c3ccccc3)c(Cl)c2c1 (centres unmarked)", "cat": "No"}
{"compound": "COc1ccc(C(O)(c2cccnc2)c2ccc3nc(N(C)C)c(-c4ccccc4)c(Cl)c3c2)cc1 (centres unmarked)", "cat": "No"}
{"compound": "CN(C)c1nc2ccc(C(O)(c3cccnc3)c3cncn3C)cc2c(Cl)c1-c1ccccc1 (centres unmarked)", "cat": "Yes"}
{"compound": "Cn1cncc1C(O)(c1ccnc(Cl)c1)c1ccc2nc(Cl)c(-c3ccccc3)c(Cl)c2c1 (centres unmarked)", "cat": "Yes"}
{"compound": "CSc1ncc(C(O)(c2ccc(Cl)cc2)c2ccc3nc(Cl)c(-c4ccccc4)c(Cl)c3c2)n1C (centres unmarked)", "cat": "No"}
{"compound": "COc1cccc(C(O)(c2ccc(C)nc2)c2ccc3nc(Cl)c(-c4ccccc4)c(Cl)c3c2)c1 (centres unmarked)", "cat": "No"}

====

The compounds listed here are annotated with their Kd.
target: human RORγt ligand binding domain (RORγt LBD) (Homo sapiens, UniProt P51449); construct: His-tag (N); TurboTEV protease cleavage site (ENLYFQG) (N); experiment: RORγt ThermoFluor assay (thermal shift, ligand binding affinity); conditions: estimated from concentration response of thermal shift
measurement.type: Kd (nM)

{"compound": "OC(c1cccnc1)(c1cccc(Cl)c1)c1ccc2ncc(-c3ccccc3)c(Cl)c2c1 (centres unmarked)", "measurement.type": "Kd", "assay.result": 1300}
{"compound": "CN(C)c1nc2ccc(C(O)(c3cccnc3)c3ccccn3)cc2c(Cl)c1-c1ccccc1 (centres unmarked)", "measurement.type": "Kd", "assay.result": 1600}
{"compound": "CC(=O)N1CCC(C(O)(c2ccccc2)c2ccc3nc(C(F)(F)F)c(-c4ccccc4)c(C(F)(F)F)c3c2)CC1 (single isomer, unassigned) [Example 169c]", "measurement.type": "Kd", "assay.result": 52}
{"compound": "OC(c1cccnc1)(c1ccc2nc(Cl)c(-c3ccccc3)c(Cl)c2c1)C1CCCNC1 (centres unmarked)", "measurement.type": "Kd", "assay.result": 1200}
{"compound": "COc1ccc(C(O)(c2ccc3nc(Cl)c(-c4ccccc4)c(Cl)c3c2)c2cc(C)no2)cn1 (centres unmarked)", "measurement.type": "Kd", "assay.result": 26}
{"compound": "Cn1cncc1C(O)(c1ccncc1)c1ccc2nc(N3CCOCC3)c(-c3ccccc3)c(Cl)c2c1 (centres unmarked)", "measurement.type": "Kd", "assay.result": 130}
{"compound": "Cc1ccc(C(O)(c2cc(C)c3nc(Cl)c(-c4ccccc4)c(Cl)c3c2)c2cncn2C)cn1 (centres unmarked)", "measurement.type": "Kd", "assay.result": 57}
{"compound": "OC(c1cccnc1)(c1ccc2nc(Cl)c(-c3ccccc3)c(Cl)c2c1)c1ccccc1Cl (centres unmarked)", "measurement.type": "Kd", "assay.result": 230}
{"compound": "COc1ccc(C(O)(c2cccnc2)c2ccc3nc(Cl)c(-c4ccccc4)c(Cl)c3c2)cc1 (centres unmarked)", "measurement.type": "Kd", "assay.result": 330}
{"compound": "OC(c1cccnc1)(c1cccnc1)c1ccc2nc(Cl)c(-c3ccccc3)c(Cl)c2c1", "measurement.type": "Kd", "assay.result": 24}
{"compound": "COc1c(-c2ccccc2)c(N(C)C)nc2ccc(C(O)(c3ccncc3)c3cncn3C)cc12 (centres unmarked)", "measurement.type": "Kd", "assay.result": 65}
{"compound": "Cc1ccc(C(O)(c2cccc(Cl)c2)c2ccc3nc(Cl)c(-c4ccccc4)c(Cl)c3c2)cn1 (centres unmarked)", "measurement.type": "Kd", "assay.result": 770}
{"compound": "CCN(C)c1nc2ccc(C(O)(c3ccncc3)c3cncn3C)cc2c(Cl)c1-c1ccccc1 (centres unmarked)", "measurement.type": "Kd", "assay.result": 5}
{"compound": "CC(=O)N1CCC(C(O)(c2ccc3nc(C(F)(F)F)c(-c4ccccc4)c(C(F)(F)F)c3c2)c2cncn2C)CC1 (racemic) [Example 181a]", "measurement.type": "Kd", "assay.result": 16}
{"compound": "CCN(CC)c1c(-c2ccccc2)c(Cl)nc2ccc(C(O)(c3cccnc3)c3cccc(Cl)c3)cc12 (centres unmarked)", "measurement.type": "Kd", "assay.result": 2500}
{"compound": "Cn1c(C(O)(c2ccc(Cl)cc2)c2ccc3nc(Cl)c(-c4ccccc4)c(Cl)c3c2)cnc1Cl (centres unmarked)", "measurement.type": "Kd", "assay.result": 620}
{"compound": "OC(c1ccc(Cl)cc1)(c1cccnc1)c1ccc2nc(-c3cncnc3)c(-c3ccccc3)c(Cl)c2c1 (centres unmarked)", "measurement.type": "Kd", "assay.result": 770}
{"compound": "COc1nc2c(C)cc(C(O)(c3ccc(F)cc3)c3cncn3C)cc2c(C#N)c1-c1cccc(F)c1 (single isomer, unassigned) [Example 180c]", "measurement.type": "Kd", "assay.result": 93}
{"compound": "Cc1cc(C(O)(c2ccc(F)cc2)c2cncn2C)cc2c(C#N)c(-c3cccc(F)c3)c(C#N)nc12 (single isomer, unassigned) [Example 175b]", "measurement.type": "Kd", "assay.result": 8200}
{"compound": "OC(c1ccncc1)(c1ccncc1)c1ccc2nc(Cl)c(-c3ccccc3)c(Cl)c2c1", "measurement.type": "Kd", "assay.result": 120}
{"compound": "OC(c1ccc(Cl)nc1)(c1cccc(Cl)c1)c1ccc2ncc(-c3ccccc3)c(Cl)c2c1 (centres unmarked)", "measurement.type": "Kd", "assay.result": 1300}
{"compound": "OC(c1ccc(C(F)(F)F)nc1)(c1cccc(Cl)c1)c1ccc2nc(Cl)c(-c3ccccc3)c(Cl)c2c1 (centres unmarked)", "measurement.type": "Kd", "assay.result": 640}
{"compound": "CN(C)c1nc2ccc(C(O)(c3cccnc3)c3ccccc3Cl)cc2c(Cl)c1-c1ccccc1 (centres unmarked)", "measurement.type": "Kd", "assay.result": 330}
{"compound": "Cn1cncc1C(O)(c1ccnc(Cl)c1)c1ccc2nc(Cl)c(-c3ccccc3)c(Cl)c2c1 (centres unmarked)", "measurement.type": "Kd", "assay.result": 1.7}
{"compound": "Cc1cc(C(O)(c2ccc3nc(Cl)c(-c4ccccc4)c(Cl)c3c2)c2cncn2C)cc(Cl)n1 (centres unmarked)", "measurement.type": "Kd", "assay.result": 0.11}
{"compound": "CC(=O)N1CCC(C(O)(c2ccccc2)c2ccc3nc(C(F)(F)F)c(-c4ccccc4)c(C(F)(F)F)c3c2)CC1 (racemic) [Example 169a]", "measurement.type": "Kd", "assay.result": 8.1}
{"compound": "Cc1cc(C(O)(c2ccc3nc(Cl)c(-c4ccccc4)c(Cl)c3c2)c2cncn2C)on1 (centres unmarked)", "measurement.type": "Kd", "assay.result": 16}
{"compound": "Cc1nc2cc(C(O)(c3ccc4nc(Cl)c(-c5ccccc5)c(Cl)c4c3)c3cncn3C)ccc2o1 (centres unmarked)", "measurement.type": "Kd", "assay.result": 77}
{"compound": "CC(C)Oc1nc2ccc(C(O)(c3ccncc3)c3cncn3C)cc2c(Cl)c1-c1ccccc1 (centres unmarked)", "measurement.type": "Kd", "assay.result": 34}
